Field: kinact/KI. Provide a value for each of the compounds that follow.
- Experimental system: Human FAAH (Homo sapiens)
- Construct: made in house
- Sequence (O00519 1-579): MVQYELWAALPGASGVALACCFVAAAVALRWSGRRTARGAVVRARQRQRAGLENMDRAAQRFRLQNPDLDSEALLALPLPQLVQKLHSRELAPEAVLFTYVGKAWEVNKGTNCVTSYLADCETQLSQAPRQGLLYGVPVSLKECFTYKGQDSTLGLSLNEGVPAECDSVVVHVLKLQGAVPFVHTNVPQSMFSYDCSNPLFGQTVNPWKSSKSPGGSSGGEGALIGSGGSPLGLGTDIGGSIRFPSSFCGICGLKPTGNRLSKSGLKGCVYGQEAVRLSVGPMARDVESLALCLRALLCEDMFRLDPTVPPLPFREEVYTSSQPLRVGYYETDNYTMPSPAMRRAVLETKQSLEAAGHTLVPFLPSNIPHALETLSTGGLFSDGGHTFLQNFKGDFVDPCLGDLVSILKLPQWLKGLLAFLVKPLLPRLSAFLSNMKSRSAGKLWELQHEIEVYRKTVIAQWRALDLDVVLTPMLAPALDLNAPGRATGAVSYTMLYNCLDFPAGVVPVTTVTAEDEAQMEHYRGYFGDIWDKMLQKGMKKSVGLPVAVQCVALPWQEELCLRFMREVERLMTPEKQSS
- Protocol summary: FAAH assay (glutamate dehydrogenase-coupled, oleamide substrate, absorbance at 340 nm)
- Assay type: biochemical
- Measurement parameters: irreversible inhibition, 1-4 nM FAAH, pH 7.4, 30° C., 90 min, read-out: hFAAH kinact/Ki
Your answer is read as M⁻¹ s⁻¹, so omit the unit and give the number.

Give reported kinact/KI value for Cn1cc(NC(=O)N2CCC(=Cc3cccc(Oc4ccc(C(F)(F)F)cn4)c3)CC2)cn1
1070

Give reported kinact/KI value for Cc1cccc(C(=O)NC(=O)N2CCC(=Cc3cccc(Oc4ccc(C(F)(F)F)cn4)c3)CC2)n1
2150

Give reported kinact/KI value for Cc1ccc(Oc2cccc(C=C3CCN(C(=O)Nc4onc(C)c4C)CC3)c2)nc1
3700

Give reported kinact/KI value for N#Cc1ccc(Oc2cccc(C=C3CCN(C(=O)Nc4cccnc4)CC3)c2)nc1
3540

Give reported kinact/KI value for COc1ncccc1NC(=O)N1CCC(=Cc2cccc(Oc3ccc(C(F)(F)F)cn3)c2)CC1
1730

Give reported kinact/KI value for O=C(Nc1ccc2nn[nH]c2c1)N1CCC(=Cc2cccc(Oc3ccc(C(F)(F)F)cn3)c2)CC1
3190

Give reported kinact/KI value for O=C(Nc1cccnc1)N1CCC(=Cc2cccc(Oc3ccccc3)n2)CC1
894

Give reported kinact/KI value for O=C(Nc1cccnn1)N1CCC(=Cc2cc(Oc3ccc(C(F)(F)F)cn3)cc(C3CC3)c2)CC1
417

Give reported kinact/KI value for COc1ccc(Oc2cccc(C=C3CCN(C(=O)Nc4cccnn4)CC3)c2)c(C)n1
394

Give reported kinact/KI value for Cc1noc(NC(=O)N2CCC(=Cc3cccc(Oc4ccc(F)cc4)c3)CC2)c1C
3450

Give reported kinact/KI value for COc1ccc(NC(=O)N2CCC(=Cc3cccc(Oc4ccc(C(F)(F)F)cn4)c3)CC2)c(C)n1
837

Give reported kinact/KI value for CC(C)Oc1ccc(Oc2cccc(C=C3CCN(C(=O)Nc4cccnc4)CC3)c2)nc1
4330

Give reported kinact/KI value for O=C(Nc1cccnc1)N1CCC(=Cc2cccc(Oc3ccc(N4CCCC4)cn3)c2)CC1
856

Give reported kinact/KI value for O=C(Nc1cccnn1)N1CCC(=Cc2cccc(Oc3ccc(C(F)(F)F)cc3)c2)CC1
12000
